Entry source: patent US20100129369A1

- SYSTEM NAME: T1, Human c-Met-Flis-Fc ECD (human)
- T1 construct: also called human c-Met extracellular domain (ECD)-Fc-Flis fusion; Human cMet-ECD-Fc-Flis
- T1 sequence (chain, as listed by the source limits assumed): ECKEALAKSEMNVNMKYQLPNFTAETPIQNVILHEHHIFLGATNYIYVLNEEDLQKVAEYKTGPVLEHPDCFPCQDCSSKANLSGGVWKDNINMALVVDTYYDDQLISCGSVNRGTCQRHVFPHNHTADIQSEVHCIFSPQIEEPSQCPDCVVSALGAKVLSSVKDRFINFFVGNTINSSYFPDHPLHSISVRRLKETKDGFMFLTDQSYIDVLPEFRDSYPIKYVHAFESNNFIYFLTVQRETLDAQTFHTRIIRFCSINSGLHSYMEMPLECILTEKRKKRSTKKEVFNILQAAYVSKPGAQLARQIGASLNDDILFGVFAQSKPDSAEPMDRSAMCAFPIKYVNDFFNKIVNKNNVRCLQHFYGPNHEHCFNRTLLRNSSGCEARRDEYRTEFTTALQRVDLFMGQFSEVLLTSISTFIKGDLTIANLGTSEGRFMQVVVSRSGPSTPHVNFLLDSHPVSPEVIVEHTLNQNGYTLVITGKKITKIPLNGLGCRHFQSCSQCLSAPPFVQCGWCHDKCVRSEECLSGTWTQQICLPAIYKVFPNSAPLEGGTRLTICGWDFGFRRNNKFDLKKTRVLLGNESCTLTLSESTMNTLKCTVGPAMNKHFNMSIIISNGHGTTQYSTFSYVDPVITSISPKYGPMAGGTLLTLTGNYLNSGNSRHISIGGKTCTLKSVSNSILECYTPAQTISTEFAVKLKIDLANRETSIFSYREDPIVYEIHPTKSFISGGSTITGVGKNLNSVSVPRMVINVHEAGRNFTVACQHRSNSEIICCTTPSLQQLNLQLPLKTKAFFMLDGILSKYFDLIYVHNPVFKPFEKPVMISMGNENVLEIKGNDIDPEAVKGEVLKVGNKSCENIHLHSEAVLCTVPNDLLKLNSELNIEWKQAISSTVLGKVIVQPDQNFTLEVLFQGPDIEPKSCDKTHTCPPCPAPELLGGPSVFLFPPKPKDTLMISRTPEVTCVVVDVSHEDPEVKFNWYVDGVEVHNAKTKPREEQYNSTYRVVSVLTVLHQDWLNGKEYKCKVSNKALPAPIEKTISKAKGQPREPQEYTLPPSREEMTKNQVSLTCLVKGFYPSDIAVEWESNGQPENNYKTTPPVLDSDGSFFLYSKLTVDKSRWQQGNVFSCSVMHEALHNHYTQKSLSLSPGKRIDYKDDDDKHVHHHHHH
- ASSAY OVERVIEW: ELISA, coated ECD-Fc, antibody 12.860 ng/mL
ASSAY METRIC: Average A450 nm
Please don't drop the unit; write it after the number.

# BINDER, RESULT
measured = [
    ("C8-6 (antibody, human IgG2, kappa, V domains shown, Called IgG4, kappa; also called Mab C8-6) VH: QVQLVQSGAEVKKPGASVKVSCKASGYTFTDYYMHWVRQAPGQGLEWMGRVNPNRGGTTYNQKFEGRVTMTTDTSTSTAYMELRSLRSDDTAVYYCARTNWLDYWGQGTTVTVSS VL: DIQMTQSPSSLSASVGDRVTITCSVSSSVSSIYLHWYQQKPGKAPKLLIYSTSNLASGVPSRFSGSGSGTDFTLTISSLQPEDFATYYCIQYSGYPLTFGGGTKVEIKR", "4 A450 nm"),
    ("D11-8B8 (antibody, human IgG2, kappa, V domains shown, Human engineered IgG2, kappa; expressed in HEK293 EBNA cells; also called Mab D11-8B8) VH: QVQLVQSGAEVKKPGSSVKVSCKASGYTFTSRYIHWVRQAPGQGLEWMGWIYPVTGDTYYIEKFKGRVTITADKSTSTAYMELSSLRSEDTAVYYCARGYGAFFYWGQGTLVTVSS VL: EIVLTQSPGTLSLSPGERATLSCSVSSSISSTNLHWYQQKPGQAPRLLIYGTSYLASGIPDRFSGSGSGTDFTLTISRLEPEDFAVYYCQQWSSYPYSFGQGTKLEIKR", "3.93 A450 nm"),
]

Read the next record carefully.
Record C8-H241 (antibody, human IgG2, kappa, V domains shown, Called IgG4, kappa; also called Mab C8-H241) VH: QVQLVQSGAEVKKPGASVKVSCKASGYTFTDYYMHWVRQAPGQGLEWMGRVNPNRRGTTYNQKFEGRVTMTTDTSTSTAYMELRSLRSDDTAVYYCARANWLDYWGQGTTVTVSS VL: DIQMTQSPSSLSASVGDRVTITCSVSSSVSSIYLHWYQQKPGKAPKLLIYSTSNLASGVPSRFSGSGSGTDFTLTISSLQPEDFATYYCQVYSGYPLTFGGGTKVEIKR , field Average A450 nm: 4 A450 nm
